tested on: Fer (mouse); assay: phosphorylation enrichment, bacterial display (enrichment ratio); higher = better substrate or ligand; peptides without Tyr show the background
Binned phosphorylation enrichment; ranges: bin A = under 0.5, bin B = from 0.5 up to 0.7, bin C = 0.7 and over

{"macromolecule_sequence": "CPPKVYELMRA [ABL2_Y515]", "group_label": "bin C"}

### Prompt State the band of DLSEVYKPCRK [CCDC93_Y176_R179C]
### Response bin A

### Prompt State the band of VLSIDYFFPPQ [AR_Y552_P549S_YF]
### Response bin B

### Prompt State the band of GVRYIYTIDGS [DCX_Y105]
### Response bin A

### Prompt State the band of MHRRQYELLGG [GNAS_Y391_L388R]
### Response bin A

### Prompt State the band of TMKSHYMELFD [BBS2_Y644_R643H_YF]
### Response bin B

### Prompt State the band of SDVNKYSTAFG [GJB3_Y16_G12D]
### Response bin A

---

target: Fes (UniProt P07332); assay: phosphorylation enrichment, bacterial display (enrichment ratio); higher = better substrate or ligand; peptides without Tyr show the background
Sequence (P07332 whole entry, looked up): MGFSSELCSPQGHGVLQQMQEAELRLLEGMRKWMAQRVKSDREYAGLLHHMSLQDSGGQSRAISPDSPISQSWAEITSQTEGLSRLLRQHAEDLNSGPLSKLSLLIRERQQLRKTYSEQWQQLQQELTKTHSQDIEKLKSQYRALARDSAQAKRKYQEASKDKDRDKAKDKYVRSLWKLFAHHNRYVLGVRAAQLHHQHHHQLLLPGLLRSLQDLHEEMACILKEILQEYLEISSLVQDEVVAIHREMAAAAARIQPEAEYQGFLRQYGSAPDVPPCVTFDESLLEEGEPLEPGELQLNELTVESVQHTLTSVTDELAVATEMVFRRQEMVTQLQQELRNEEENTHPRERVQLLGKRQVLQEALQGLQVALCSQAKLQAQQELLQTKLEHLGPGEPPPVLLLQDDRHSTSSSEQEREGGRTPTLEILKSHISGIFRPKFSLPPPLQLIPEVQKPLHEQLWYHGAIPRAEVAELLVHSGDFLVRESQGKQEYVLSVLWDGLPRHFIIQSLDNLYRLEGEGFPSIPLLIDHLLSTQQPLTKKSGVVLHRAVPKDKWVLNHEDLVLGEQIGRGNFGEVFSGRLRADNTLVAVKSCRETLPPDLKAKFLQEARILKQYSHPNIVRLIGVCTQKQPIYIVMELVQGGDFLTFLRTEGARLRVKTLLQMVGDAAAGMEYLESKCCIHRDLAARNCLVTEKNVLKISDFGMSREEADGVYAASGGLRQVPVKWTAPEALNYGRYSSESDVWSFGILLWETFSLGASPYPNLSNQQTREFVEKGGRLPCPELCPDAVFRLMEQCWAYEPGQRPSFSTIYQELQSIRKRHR
endpoint_name: phosphorylation enrichment
Keep it simple and answer with nothing but the number.

{"macromolecule_sequence": "GPIEVYLCPEE [E2F3_Y349]", "assayed_target": "Fes (UniProt P07332)", "phosphorylation enrichment": 1.08}
{"macromolecule_sequence": "AVISVYDLVAV [PSEN1_Y256]", "assayed_target": "Fes (UniProt P07332)", "phosphorylation enrichment": 1.2}
{"macromolecule_sequence": "PRSRSYSSTSI [REPS2_Y462]", "assayed_target": "Fes (UniProt P07332)", "phosphorylation enrichment": 1.71}
{"macromolecule_sequence": "WHHIFYNELRV [ACTG1_Y91_T89I]", "assayed_target": "Fes (UniProt P07332)", "phosphorylation enrichment": 1.33}
{"macromolecule_sequence": "ILDEAYVMASV [EGFR_Y764]", "assayed_target": "Fes (UniProt P07332)", "phosphorylation enrichment": 1.33}

### Prompt Note down phosphorylation enrichment recorded for RELGEYPLAEY [ALDH1A3_Y492_A493P]
### Response 1.41

### Prompt Note down phosphorylation enrichment recorded for DTNIAYCLHPR [POMT1_Y581_W582C]
### Response 1.06

### Prompt Note down phosphorylation enrichment recorded for RLFARYFQGDL [PDK3_Y337_YF]
### Response 0.882

### Prompt Note down phosphorylation enrichment recorded for YSSLGYPPPEG [ZSWIM4_Y87]
### Response 0.793

### Prompt Note down phosphorylation enrichment recorded for ESLRSYDVMDV [KCNQ2_Y562_P561S]
### Response 1.28

### Prompt Note down phosphorylation enrichment recorded for GFRVFYTPDSR [PTPRF_Y451_YF]
### Response 1.19

### Prompt Note down phosphorylation enrichment recorded for AEFGLYRAMVR [VSX2_Y222_G223R_YF]
### Response 0.779

### Prompt Note down phosphorylation enrichment recorded for KQLYAYKMLMA [TMC2_Y209]
### Response 0.72

---

target: Grb2 SH2 (UniProt P62993); assay: SH2 binding enrichment of the phosphorylated peptide, bacterial display (enrichment ratio); higher = better substrate or ligand; peptides without Tyr show the background
Sequence (P62993 whole entry, looked up): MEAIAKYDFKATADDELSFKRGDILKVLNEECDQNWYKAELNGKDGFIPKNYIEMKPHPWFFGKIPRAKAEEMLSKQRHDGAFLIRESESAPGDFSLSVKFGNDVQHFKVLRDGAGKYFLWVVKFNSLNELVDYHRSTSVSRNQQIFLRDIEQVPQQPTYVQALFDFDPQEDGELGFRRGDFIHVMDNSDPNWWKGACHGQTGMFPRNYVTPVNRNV
Catalogue of SH2 binding enrichment readings, one per entry.
Keep it simple and answer with nothing but the number.

Worked examples, 5 sequences total:
{"macromolecule_sequence": "TPGPNYRPGFN [USH2A_Y463_YF]", "SH2 binding enrichment": 0.776}
{"macromolecule_sequence": "FGTAQYCCRMG [LRRK2_Y2023_I2020T_YF]", "SH2 binding enrichment": 0.978}
{"macromolecule_sequence": "HNLDYYKMTTN [FGFR3_Y648_K650M]", "SH2 binding enrichment": 0.756}
{"macromolecule_sequence": "YGPPQYNMQYS [ERBB2IP_Y977_I979M]", "SH2 binding enrichment": 0.849}
{"macromolecule_sequence": "LALTVYADCLA [ABCA4_Y2063_G2059A]", "SH2 binding enrichment": 0.624}

Would you kindly look at the next entry?
### Prompt Note down SH2 binding enrichment recorded for EDKFMYFEFPQ [PTEN_Y240]
### Response 0.745

---

Catalogue of SH2 binding enrichment readings, one per entry.
biological target: SHP2-C SH2; assay: SH2 binding enrichment of the phosphorylated peptide, bacterial display (enrichment ratio); higher = better substrate or ligand; peptides without Tyr show the background

Worked examples, 8 sequences total:
{"macromolecule_sequence": "FQLENCCNGGG [INS_Y108_Y108C_YF]", "SH2 binding enrichment": 0.444}
{"macromolecule_sequence": "PANMVYSTVEI [SLAMF7_Y304_T302M]", "SH2 binding enrichment": 0.546}
{"macromolecule_sequence": "GENTVYAQVFN [LY9_Y603_M602V]", "SH2 binding enrichment": 7.82}
{"macromolecule_sequence": "HSHTRYERNIE [F2_Y434_R431H]", "SH2 binding enrichment": 1.12}
{"macromolecule_sequence": "VYYDLYGGEKF [PTPN11_Y66_D61V]", "SH2 binding enrichment": 1.06}
{"macromolecule_sequence": "ESTPLYPMLFG [SCLY_Y280_F276S]", "SH2 binding enrichment": 0.891}
{"macromolecule_sequence": "LAARYYNWVSF [FLT4_Y1231]", "SH2 binding enrichment": 1.38}
{"macromolecule_sequence": "MSNFAYVKREV [SCN1A_Y1694]", "SH2 binding enrichment": 0.7}

### Prompt Write down measured SH2 binding enrichment (SHP2-C SH2) for this sequence. RFLRGYRQFAF [HLA-A_Y137_D140Y_YF]
### Response 0.521

### Prompt Write down measured SH2 binding enrichment (SHP2-C SH2) for this sequence. HTVVSYAKVRA [CLOCK_Y378_E380K]
### Response 14.5

---

Catalogue of SH2 binding enrichment readings, one per entry.
molecular target: Grb2 SH2 (UniProt P62993); assay: SH2 binding enrichment of the phosphorylated peptide, bacterial display (enrichment ratio); higher = better substrate or ligand; peptides without Tyr show the background
Keep it simple and answer with nothing but the number.

Worked examples, 4 sequences total:
{"macromolecule_sequence": "HGVSSYDTIIS [LDLR_Y465_V468I]", "SH2 binding enrichment": 0.546}
{"macromolecule_sequence": "EEKKKYYDTKI [CASP5_Y103]", "SH2 binding enrichment": 0.698}
{"macromolecule_sequence": "TFTVSYLPDMS [FLNC_Y1602_YF]", "SH2 binding enrichment": 0.792}
{"macromolecule_sequence": "WFKKFYDANFD [MAPRE2_Y158_YF]", "SH2 binding enrichment": 1.06}

### Prompt Write down measured SH2 binding enrichment (Grb2 SH2 (UniProt P62993)) for this sequence. SIKDKYVTALF [KCNH2_Y611_YF]
### Response 0.8

### Prompt Write down measured SH2 binding enrichment (Grb2 SH2 (UniProt P62993)) for this sequence. FNVLQYVVPKV [EIF3A_Y382_E386K]
### Response 1.31

### Prompt Write down measured SH2 binding enrichment (Grb2 SH2 (UniProt P62993)) for this sequence. GENTVYAQVFN [LY9_Y603_M602V]
### Response 0.829

### Prompt Write down measured SH2 binding enrichment (Grb2 SH2 (UniProt P62993)) for this sequence. LTQRTYMSENA [GPAA1_Y49]
### Response 0.783

### Prompt Write down measured SH2 binding enrichment (Grb2 SH2 (UniProt P62993)) for this sequence. EFGRRYGFSCQ [CCDC93_Y209_R213C_YF]
### Response 0.856

### Prompt Write down measured SH2 binding enrichment (Grb2 SH2 (UniProt P62993)) for this sequence. VNFGAYINDFK [GLB1_Y488_YF]
### Response 1.74

---

target: c-Src SH2; experiment: SH2 binding enrichment of the phosphorylated peptide, bacterial display (enrichment ratio); higher = better substrate or ligand; peptides without Tyr show the background
endpoint_name: SH2 binding enrichment

Worked examples, 6 sequences total:
{"macromolecule_sequence": "CTTSHYNYMCN [TP53_Y234_I232S]", "SH2 binding enrichment": 11}
{"macromolecule_sequence": "SGDVQYRSSVR [FREM2_Y2158_T2153S]", "SH2 binding enrichment": 0.514}
{"macromolecule_sequence": "SGSFRYGSSFE [SELE_Y390_C394F]", "SH2 binding enrichment": 0.564}
{"macromolecule_sequence": "CTTIHYYYMCN [TP53_Y234_N235Y]", "SH2 binding enrichment": 2.94}
{"macromolecule_sequence": "FGTAQYCCRMG [LRRK2_Y2023_I2020T_YF]", "SH2 binding enrichment": 0.772}
{"macromolecule_sequence": "KDHPDYKYQPR [SOX10_Y171]", "SH2 binding enrichment": 0.619}

### Prompt Write down measured SH2 binding enrichment (c-Src SH2) for this sequence. TFYQMYDKGLV [IARS2_Y231]
### Response 0.838
